biological target: ApL (A. pediades laccase) (Agrocybe pediades, UniProt A0A8H4QKE8, V194E/N433D); construct: gene D9613_012768; settings: read-out: IC50 (mM or v/v % ^a); DM variant; ABTS about 3 mM, citrate-phosphate pH 3; fluoride, TNC site
Endpoint: IC50 (mM)
Quick reminder: number only, in mM, skip the unit.

Data request: So what IC50 did F get with ApL (A. pediades laccase) (Agrocybe pediades, UniProt A0A8H4QKE8, V194E/N433D)?
Data returned: 0.051
